# tested.target: electrophorus electricus AChE (Electrophorus electricus, UniProt O42275)
# Sequence (O42275 24-633): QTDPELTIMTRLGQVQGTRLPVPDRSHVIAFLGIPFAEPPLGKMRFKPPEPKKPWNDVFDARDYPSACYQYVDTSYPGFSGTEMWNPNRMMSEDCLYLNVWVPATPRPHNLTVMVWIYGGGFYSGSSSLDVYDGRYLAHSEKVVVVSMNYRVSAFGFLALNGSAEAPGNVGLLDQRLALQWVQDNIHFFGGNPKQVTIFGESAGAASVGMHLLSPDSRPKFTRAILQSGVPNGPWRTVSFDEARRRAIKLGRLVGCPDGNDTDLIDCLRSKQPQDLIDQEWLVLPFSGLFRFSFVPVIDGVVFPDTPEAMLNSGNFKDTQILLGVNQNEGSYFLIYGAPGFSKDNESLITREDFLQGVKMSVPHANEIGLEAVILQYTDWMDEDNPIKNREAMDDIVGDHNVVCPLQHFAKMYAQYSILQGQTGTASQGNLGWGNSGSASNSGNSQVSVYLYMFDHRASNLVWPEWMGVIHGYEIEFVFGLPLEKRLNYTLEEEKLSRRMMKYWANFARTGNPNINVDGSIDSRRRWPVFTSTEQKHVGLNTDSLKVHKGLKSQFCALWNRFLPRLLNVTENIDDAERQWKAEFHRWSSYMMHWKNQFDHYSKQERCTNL
# protocol.notes: AChE inhibition, Ellman's method
# Assay type: biochemical
# assay.conditions: read-out: AChE (I %)
# binarize inhibition at 50 µM: threshold 10% inclusive, high side TRUE, low side FALSE

smiles.representation | answer.label
N#Cc1ccc(C(=O)c2c(-c3ccc(C#N)cc3)sc3ccccc23)cc1 | FALSE
O=C(c1ccc(O)cc1)c1c(-c2ccc(O)cc2)sc2ccccc12 | TRUE
O=C(c1ccccc1)c1c(-c2ccccc2)sc2ccccc12 | TRUE
COc1ccc(C(=O)c2c(-c3ccc(OC)cc3)sc3ccccc23)cc1 | FALSE
Cc1ccc(C(=O)c2c(-c3ccc(C)cc3)sc3ccccc23)cc1 | TRUE
COc1ccc(-c2cc3ccccc3s2)cc1 | FALSE
O=[N+]([O-])c1ccc(-c2cc3ccccc3s2)cc1 | FALSE

---

# tested.target: UniProt O42275
# protocol.notes: AChE inhibition, Ellman's method
# Type: biochemical
# assay.conditions: read-out: AChE (I %)
Let's look at some compounds and their measured inhibition at 50 µM.
reported.property: inhibition at 50 µM (%)

compound | reported.property | unit.spec | meas.value
O=C(c1ccc([N+](=O)[O-])cc1)c1c(-c2ccc([N+](=O)[O-])cc2)sc2ccccc12 [Compound 5b] | inhibition at 50 µM | % | 11
Oc1ccc(-c2cc3ccccc3s2)cc1 [Compound 4i, 2-(4-hydroxyphenyl)benzothiophene] | inhibition at 50 µM | % | 8.19
O=C(c1ccc(Cl)cc1)c1c(-c2ccc(Cl)cc2)sc2ccccc12 [Compound 5f] | inhibition at 50 µM | % | 39.9

---

# tested.target: equine serum BChE (Equus caballus, UniProt P81908)
# Sequence (P81908 whole entry): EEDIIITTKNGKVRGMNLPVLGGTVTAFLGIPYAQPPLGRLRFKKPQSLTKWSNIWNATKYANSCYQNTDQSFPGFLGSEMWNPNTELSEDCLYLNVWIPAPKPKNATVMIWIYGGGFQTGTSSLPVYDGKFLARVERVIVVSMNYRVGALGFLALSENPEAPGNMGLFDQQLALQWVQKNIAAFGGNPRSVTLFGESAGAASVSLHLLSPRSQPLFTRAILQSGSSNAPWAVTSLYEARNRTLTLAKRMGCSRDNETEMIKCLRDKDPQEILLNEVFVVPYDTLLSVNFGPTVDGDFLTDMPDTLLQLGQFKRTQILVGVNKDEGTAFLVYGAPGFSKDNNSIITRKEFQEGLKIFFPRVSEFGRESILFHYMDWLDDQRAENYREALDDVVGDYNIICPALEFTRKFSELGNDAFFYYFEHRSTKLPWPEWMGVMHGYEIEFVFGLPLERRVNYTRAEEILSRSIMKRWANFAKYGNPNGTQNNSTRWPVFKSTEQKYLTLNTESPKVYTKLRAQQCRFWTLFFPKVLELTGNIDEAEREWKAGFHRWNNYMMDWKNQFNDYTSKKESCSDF
# protocol.notes: biochemical
Readings of IC50 for the listed compounds
reported.property: IC50 (µM)

smiles.representation | reported.property | meas.value
O=C(c1ccc(O)cc1)c1c(-c2ccc(O)cc2)sc2ccccc12 | IC50 | 59.6
Nc1ccc(C(=O)c2c(-c3ccc(N)cc3)sc3ccccc23)cc1 | IC50 | 24.3
O=C(c1ccccc1)c1c(-c2ccccc2)sc2ccccc12 | IC50 | 83.4

---

// reported inhibition at 50 µM for each item listed
# tested.target: equine serum BChE (Equus caballus, UniProt P81908)
# Construct: from tissue; host or cells: equine serum
# protocol.notes: biochemical
# assay.conditions: read-out: BChE (I %)

compound | inhibition at 50 µM
Nc1ccc(-c2cc3ccccc3s2)cc1 | 10.2%
COc1ccc(C(=O)c2c(-c3ccc(OC)cc3)sc3ccccc23)cc1 | 11.9%
Cc1ccc(C(=O)c2c(-c3ccc(C)cc3)sc3ccccc23)cc1 | 13.1%
Nc1ccc(C(=O)c2c(-c3ccc(N)cc3)sc3ccccc23)cc1 | 58.3%
COc1ccc(-c2cc3ccccc3s2)cc1 | 1.2%
O=C(c1ccc(C(F)(F)F)cc1)c1c(-c2ccc(C(F)(F)F)cc2)sc2ccccc12 | 3.1%
O=C(c1ccc([N+](=O)[O-])cc1)c1c(-c2ccc([N+](=O)[O-])cc2)sc2ccccc12 | 16.8%
Oc1ccc(-c2cc3ccccc3s2)cc1 [Compound 4i, 2-(4-hydroxyphenyl)benzothiophene] | 13.6%
O=C(c1ccccc1)c1c(-c2ccccc2)sc2ccccc12 | 35.7%
O=C(c1ccc(Cl)cc1)c1c(-c2ccc(Cl)cc2)sc2ccccc12 | 23.1%
N#Cc1ccc(C(=O)c2c(-c3ccc(C#N)cc3)sc3ccccc23)cc1 | 14%
O=C(c1ccc(O)cc1)c1c(-c2ccc(O)cc2)sc2ccccc12 | 42.2%
O=[N+]([O-])c1ccc(-c2cc3ccccc3s2)cc1 | 2.29%
